tested_target: Muscarinic acetylcholine receptor M3 (Homo sapiens, UniProt P20309)
Sequence (P20309 whole entry): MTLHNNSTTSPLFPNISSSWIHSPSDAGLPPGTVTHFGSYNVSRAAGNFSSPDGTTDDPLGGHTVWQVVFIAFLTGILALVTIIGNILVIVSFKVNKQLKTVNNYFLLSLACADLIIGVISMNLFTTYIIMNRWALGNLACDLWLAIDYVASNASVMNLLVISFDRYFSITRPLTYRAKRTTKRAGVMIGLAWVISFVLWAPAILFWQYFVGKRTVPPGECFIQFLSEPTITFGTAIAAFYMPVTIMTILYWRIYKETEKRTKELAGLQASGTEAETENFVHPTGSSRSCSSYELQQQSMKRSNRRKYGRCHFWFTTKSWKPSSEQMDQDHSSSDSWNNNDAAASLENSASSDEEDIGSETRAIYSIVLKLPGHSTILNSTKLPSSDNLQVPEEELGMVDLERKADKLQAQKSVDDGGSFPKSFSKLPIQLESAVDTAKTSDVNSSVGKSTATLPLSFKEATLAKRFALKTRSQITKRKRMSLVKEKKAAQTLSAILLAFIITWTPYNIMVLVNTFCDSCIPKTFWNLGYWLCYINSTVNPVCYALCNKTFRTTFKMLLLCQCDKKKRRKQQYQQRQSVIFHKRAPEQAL
experiment_description: biochemical
Type: cell-based, CHO
Description: Binding affinity (Ki) against binding of [3H]NMS using membranes from CHO cells expressing cloned human Muscarinic acetylcholine receptor M3
pKi reference
Reminder that pKi means the negative base-10 logarithm of the concentration expressed in mol/L.

O=C(CCNC(=O)[C@@H]1CCCN1C(=O)CC(c1ccccc1)(c1ccccc1)c1ccccc1)NC[C@H]1CCCN(CC2CCCCC2)C1 | 9.57
O=C(CNC(=O)[C@@H]1CCCN1C(=O)CC(c1ccccc1)(c1ccccc1)c1ccccc1)NC[C@H]1CCCN(CC2CCCCC2)C1 | 8.66
O=C(NC[C@H]1CCCN(CC2CCCCC2)C1)[C@H]1CCCN1C(=O)[C@@H]1CCCN1C(=O)CC(c1ccccc1)(c1ccccc1)c1ccccc1 | 9.60

Which pKi reading was recorded for the compound `O=C(CCCCCNC(=O)CC(c1ccccc1)(c1ccccc1)c1ccccc1)NC[C@H]1CCCN(CC2CCCCC2)C1` ? 9.00
